Reference source: patent USRE48461E1

Would you mind telling me the reported percent inhibition of AR of each entry?
tested on: AR mRNA; assay: Dose-dependent antisense inhibition of human AR in HuVEC cells (electroporation, qRT-PCR RTS3559, IC50); format: cell-based; details: 55.6 nM; HuVEC, ~16 h; Table 3
Oligonucleotides are written 5' to 3', each unit as a sugar letter and its base; * is a phosphorothioate linkage, no mark a phosphodiester; rarer units and linkages stand in square brackets, end groups in braces. Plain capitals give the bases only. k = constrained ethyl (cEt); [5mC] = 5-methylcytosine; d = 2'-deoxy (DNA)
Report the figure in % without appending any unit label.

Any idea what percent inhibition of AR came out for 549381 (kG*k[5mC]*k[5mC]*dG*d[5mC]*d[5mC]*dA*dG*dG*dG*dT*dA*d[5mC]*k[5mC]*kA*k[5mC]; antisense) [compound 549381] on AR mRNA?
14

Any idea what percent inhibition of AR came out for 549377 (kA*kG*kG*dA*dT*dG*dA*dG*dG*dA*dA*dG*d[5mC]*kG*kG*k[5mC]; antisense) [compound 549377] on AR mRNA?
13

Any idea what percent inhibition of AR came out for 549372 (kA*kA*kG*dT*dT*dG*dT*dA*dG*dT*dA*dG*dT*k[5mC]*kG*k[5mC]) [compound 549372] on AR mRNA?
22

Any idea what percent inhibition of AR came out for 549358 (kA*kT*kG*dG*dT*dG*d[5mC]*dT*dG*dG*d[5mC]*d[5mC]*dT*k[5mC]*kG*k[5mC]; antisense) [compound 549358] on AR mRNA?
29

Any idea what percent inhibition of AR came out for 549362 (k[5mC]*k[5mC]*k[5mC]*dG*dA*dA*dG*d[5mC]*dT*dG*dT*dT*d[5mC]*k[5mC]*k[5mC]*k[5mC]; antisense) [compound 549362] on AR mRNA?
10

Any idea what percent inhibition of AR came out for 549383 (k[5mC]*k[5mC]*kA*dA*dA*d[5mC]*dG*d[5mC]*dA*dT*dG*dT*d[5mC]*k[5mC]*k[5mC]*k[5mC]; antisense) [compound 549383] on AR mRNA?
10

Any idea what percent inhibition of AR came out for 549360 (kG*kG*kT*d[5mC]*dG*dA*dA*dG*dT*dG*d[5mC]*d[5mC]*d[5mC]*k[5mC]*k[5mC]*kT; antisense) [compound 549360] on AR mRNA?
44

Any idea what percent inhibition of AR came out for 549361 (kG*kA*k[5mC]*dA*d[5mC]*d[5mC]*dG*dA*d[5mC]*dA*d[5mC]*dT*dG*k[5mC]*k[5mC]*kT; antisense) [compound 549361] on AR mRNA?
12

Any idea what percent inhibition of AR came out for 549388 (kT*k[5mC]*k[5mC]*d[5mC]*dT*dT*d[5mC]*dA*dG*d[5mC]*dG*dG*d[5mC]*kT*k[5mC]*kT; antisense) [compound 549388] on AR mRNA?
15
